Hey, just so you know, these numbers are from the RNAGym collection of RNA variant scans (doi:10.7554/elife.80360).

B1: CPEB3 Ribozyme (parent)
chain: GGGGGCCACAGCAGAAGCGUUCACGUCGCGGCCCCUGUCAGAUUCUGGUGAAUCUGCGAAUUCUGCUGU

- Variants of: B1
- ASSAY: self-cleavage, relative activity (ratio to wild type); higher = more cleavage; co-transcriptional
Provide the reported self-cleavage of each item.

Please report the measured self-cleavage for GGGGGCCACAGCGGAAGCGUUCACGUCGCGGCCCCUGUCAGAUUCUGGUGAAUCUGCGAAUUCUUCUGU [A13G G65U]
0.561

Output measured self-cleavage for this item: CGGGGCCACAACAGAAGCGUUCACGUCGCGGCCCCUGUCAGAUUCUGGUGAAUCUGCGAAUUCUGCUGU [G1C G11A]
0.14

For the variant CGGGGCCACAGCAGAAGCGUUCACGUCGCGUCCCCUGUCAGAUUCUGGUGAAUCUGCGAAUUCUGCUGU [G1C G31U] , report self-cleavage.
0.266

Annotate the variant GGGGCCCACAGCAGAAGCGUUCACGGCGCGGCCCCUGUCAGAUUCUGGUGAAUCUGCGAAUUCUGCUGU [G5C U26G] with its measured self-cleavage.
0.228

Give me measured self-cleavage, please, for this variant: UGGGGACACAGCAGAAGCGUUCACGUCGCGGCCCCUGUCAGAUUCUGGUGAAUCUGCGAAUUCUGCUGU [G1U C6A]
0.0884

Answer with the recorded self-cleavage for the variant listed here: AGGGGCCACAGCAGAAGCGUUCACGUCGUGGCCCCUGUCAGAUUCUGGUGAAUCUGCGAAUUCUGCUGU [G1A C29U]
0.0423

Quote self-cleavage reported for GGGGGCCACAGCAGAAGCGUUCACGUCGCGGCCCCUGUCACAUUCUGGUGAAUCCGCGAAUUCUGCUGU [G41C U55C] please.
0.394

Tell me self-cleavage reported for GGGGGCCACAGCAGAAGCGUUCACGUCGCGGCCCCUGUCAGAUUCUGGUGCAUCUGCGAAUUCUGCUGA [A51C U69A]
1.05

In one line, give reported self-cleavage of the entry GGGGGCCACAGCAGAAGGGUUCACGUCGCGGCCCCUGUCAGAUUCUGGUGAAUCUGCGAAUUCUGCUGU [C18G] .
0.188

Provide self-cleavage value for the following variant: GGGGGCCACAGCAGAAGAGUUCACGUCGCGGCCCGUGUCAGAUUCUGGUGAAUCUGCGAAUUCUGCUGU [C18A C35G]
0.104

Using the record for GGGGGCCACAGCAGAAGCGUUCACGUCGCGGCCCCUGUCAGAUGCUGGUGAAUCUGCGAAUUCUGCUUU [U44G G68U] , state its measured self-cleavage.
1.03

Read off the recorded self-cleavage for GUGGGCCACAGCAGAAGCGUUCACGUCGCGGCCCCUGUCAGAUUCUUGUGAAUCUGCGAAUUCUGCUGU [G2U G47U]
0.059

Return value of self-cleavage for input GGGGGCCACAGCAGAAGCGUUCACGUCGCGGCCCCAGUCAGAAUCUGGUGAAUCUGCGAAUUCUGCUGU [U36A U43A] , no commentary.
0.249

State, in one line, measured self-cleavage of GGGGCCCACAGCAGAAGCGUUCACGUCGCGGCCCCUGUCAGUUUCUGGUGAAUCUGCGAAUUCUGCUGU [G5C A42U]
0.265

Assign self-cleavage to the following record: GGGGGCCACAGCAGAAGCGUUCACGUCGCGGCCCCAGUCAGAUUCUGGUGAAUCUGAGAAUUCUGCUGU [U36A C57A]
0.213

Give reported self-cleavage value for GGGGGCCACAGCAGAAGCGUUCACGUCGCGGCCCCUCUCAGAUUCUGGUGAAUCGGCGAAUUCUGCUGU [G37C U55G]
0.236

# return recorded self-cleavage for entry GGGGGUCACAGCAGAAGCGUUCACGUCCCGGCCCCUGUCAGAUUCUGGUGAAUCUGCGAAUUCUGCUGU [C6U G28C]
0.0878

Report self-cleavage for GGGGGCCACAGCAGAAGCGUUCGCGUCGCGGCCCCUGUCAGAUUCUGGUGAACCUGCGAAUUCUGCUGU [A23G U53C]
0.8

# return recorded self-cleavage for input GGGGGCCACAGCAGAAGCUUUCACGUCGCUGCCCCUGUCAGAUUCUGGUGAAUCUGCGAAUUCUGCUGU [G19U G30U]
0.166

Provide self-cleavage value for the following variant: GGGGGCCACAGCAUAAGCGUUCACGUCGCGGCCCCUGUCAGAUUCUGGUGAAUCUGCGAAUUCCGCUGU [G14U U64C]
0.401

Determine from records and report self-cleavage for GGGGGCCACAGCAGAAGCGUUCACGUCGCGGCCCCUGUCAGAUUCUGGUGAACCUGCGAAUUCUGCUGC [U53C U69C]
1.05

Give reported self-cleavage value for GGGGGCCACAGCAGAAGCGUUCUCGUCGCGGCCGCUGUCAGAUUCUGGUGAAUCUGCGAAUUCUGCUGU [A23U C34G]
0.819

Name the recorded self-cleavage of the item GGGGGCCACAGCAGAAUCGUUCACGUCGCGGCCCCUGUCAGAUUCUGGUGAAUCUGCGAAUGCUGCUGU [G17U U62G] in your answer.
0.316

State its self-cleavage for this variant: GGGGGCCACAGCAGAAGCGUUUACGUCGCGGCCUCUGUCAGAUUCUGGUGAAUCUGCGAAUUCUGCUGU [C22U C34U]
0.332

Report self-cleavage for GGGGGCCACAGCAGAAGCGUUCACGUCGCGGCCCUUGUCAGCUUCUGGUGAAUCUGCGAAUUCUGCUGU [C35U A42C]
0.81

Read the entry GGGGGCCACAGCAGAAGCGUUGACGUCGCGGCCCCUGUCAGAUUCUGGUGAAUAUGCGAAUUCUGCUGU [C22G C54A] and write its reported self-cleavage.
0.121

Provide self-cleavage value for the following variant: GGGUGCCACAGCAGAAGCGUUCACGGCGCGGCCCCUGUCAGAUUCUGGUGAAUCUGCGAAUUCUGCUGU [G4U U26G]
0.3

Tell me its self-cleavage given GGGGGCCACAGCAGAAGCGUUCACGUCGCGACCCCUGUCCGAUUCUGGUGAAUCUGCGAAUUCUGCUGU [G31A A40C] as the entry.
0.218

Give recorded self-cleavage. GGGGGCCACAGAAGAAGCGUUCACGUCGCGGCCCCUGUCAGAUUCUGGUGAAUCUGCGAUUUCUGCUGU [C12A A60U]
0.257

Please report self-cleavage for the following variant: GGGGGCCACAGCAGAAGAGUUCACGUCGCCGCCCCUGUCAGAUUCUGGUGAAUCUGCGAAUUCUGCUGU [C18A G30C]
0.133

Identify the reported self-cleavage for the following entry. GGGGGCCACAGCAGAAGGGUUCACGUCGCGGCCCCUGUCAAAUUCUGGUGAAUCUGCGAAUUCUGCUGU [C18G G41A]
0.113

Give self-cleavage for the following variant: GGGGGCCACAGCAGAAGCGUUCACGUCGCGGGCCCUGUCAGAUUCUGGUGAAUCUGCGAAUUCUGCUCU [C32G G68C]
0.768

Give the value of self-cleavage reported for the following: GGGGGCCACAGCAGAAGCGUUCACGUCGCGGCCCCUGUCAGAUUCUGGUGAAUUUGUGAAUUCUGCUGU [C54U C57U]
0.385

Give the reported value of self-cleavage for this record: GGGGGCCACAGCAGAAGCGUUCACGUCGCGGCCCCUGUCAGAUUCUGGUGAAUCUACGAAUUCUGGUGU [G56A C66G]
0.744

Give reported self-cleavage value for GGGGACCACAGCAGAAGCGUUCACGUCGCGGCCCCUGUCAGAUUCUGGUGAAUAUGCGAAUUCUGCUGU [G5A C54A]
0.546

Provide self-cleavage value for the following variant: GGGGGCCACAACAGAAGCGUUCACGUCGCGGCCCCUGUCAGAUUCUGGUGAAUCUGCGAAUUCUGCUAU [G11A G68A]
0.956

For the variant GGGGGCCACAGCAGAAGCGUUAACGUCCCGGCCCCUGUCAGAUUCUGGUGAAUCUGCGAAUUCUGCUGU [C22A G28C] , give its reported self-cleavage.
0.124

Consider the variant GGGGGCCACAGCAGAAGCGUUCACGUCGCGGCCCCUGUCAAAUUCUGGUGAAUCUGCGAAUUCUGCUGG [G41A U69G] and give its recorded self-cleavage.
1

Could you please provide reported self-cleavage for GGGGGCCACAGCAGAAGCGUUCGCGUCGCGGCCCCUGUCAGAUUCUUGUGAAUCUGCGAAUUCUGCUGU [A23G G47U] ? Thanks!
0.991

Supply measured self-cleavage of GGAGGCCACAGCAGAAGCGUUCACGUCGCGGCCCCUGUCAGAUUCUGGUGAAUCUGGGAAUUCUGCUGU [G3A C57G] in your reply.
0.175

Kindly indicate its recorded self-cleavage. Item: GGGGGCCACAGCAGAAGCGUUCACGUCGCGGCCCCUGUCAAAUUCUGGUGAAUCUGCGAAUUCCGCUGU [G41A U64C]
0.385

Please report self-cleavage for the following variant: GGGGGCCGCAGCUGAAGCGUUCACGUCGCGGCCCCUGUCAGAUUCUGGUGAAUCUGCGAAUUCUGCUGU [A8G A13U]
0.0712

Hello, please tell me recorded self-cleavage for this one: GGGGGCCACAGCAGAAGCGUUCACGUCGCCGCCCCUGACAGAUUCUGGUGAAUCUGCGAAUUCUGCUGU [G30C U38A]
0.314

State its self-cleavage for this variant: GGGGGCCACAGCAGAAGCGUUCACAUCGCGGCGCCUGUCAGAUUCUGGUGAAUCUGCGAAUUCUGCUGU [G25A C33G]
0.206

Input GGGGGCCACAGGAGAAACGUUCACGUCGCGGCCCCUGUCAGAUUCUGGUGAAUCUGCGAAUUCUGCUGU [C12G G17A] , output reported self-cleavage.
0.148

Consider the variant GGGGGCCACAGCAGAAGCGUCCACGUCGCGGCCCCUGUCAGAUUCUGGUGAAUCUGCGGAUUCUGCUGU [U21C A59G] and give its recorded self-cleavage.
0.928
